Source listed as patent US11478526B2.

As shown below, each of these substances has a reported Kd value.
# ASSAY TARGET: Recombinant human p65 protein (r-p65) (Homo sapiens, UniProt Q04206)
# Construct: purchased Ori-Gene Technologies Inc., Rockville, Md; TP320780
# Sequence (Q04206 whole entry): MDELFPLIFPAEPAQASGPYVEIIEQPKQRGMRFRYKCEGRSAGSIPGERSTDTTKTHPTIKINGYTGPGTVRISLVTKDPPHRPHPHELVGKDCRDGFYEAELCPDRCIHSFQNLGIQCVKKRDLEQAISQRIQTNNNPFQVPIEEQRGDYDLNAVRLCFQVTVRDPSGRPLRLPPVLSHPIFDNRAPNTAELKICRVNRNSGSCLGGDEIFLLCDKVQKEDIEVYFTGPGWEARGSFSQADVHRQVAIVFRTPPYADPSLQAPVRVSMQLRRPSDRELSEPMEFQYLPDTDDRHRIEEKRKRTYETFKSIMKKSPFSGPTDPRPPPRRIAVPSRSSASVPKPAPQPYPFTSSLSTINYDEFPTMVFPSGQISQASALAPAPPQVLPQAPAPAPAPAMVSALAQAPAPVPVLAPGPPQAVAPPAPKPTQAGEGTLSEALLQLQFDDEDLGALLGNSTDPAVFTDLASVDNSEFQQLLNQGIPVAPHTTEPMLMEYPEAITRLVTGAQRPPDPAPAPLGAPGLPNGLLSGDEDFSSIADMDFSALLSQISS
# TEST DETAILS: Plate binding ELISA of GA/PGA with r-p65 (KD by method of Friguet)
# CONDITION NOTES: dissociation constant, KD, method of Friguet et al.
Give the value, in units of µM, as a plain number.

Solved entries:
# SUBSTANCE, ASSAY TARGET, REPORTED MEASUREMENT
rows = [
    ("Ac-EPAPLAPYG-NH2 [PGA-2]", "Recombinant human p65 protein (r-p65) (Homo sapiens, UniProt Q04206)", 2.29),
    ("Ac-EPAPEQPDG-NH2 [PGA-5]", "Recombinant human p65 protein (r-p65) (Homo sapiens, UniProt Q04206)", 3.4),
    ("Ac-EPAPESPQV-NH2 [PGA-4]", "Recombinant human p65 protein (r-p65) (Homo sapiens, UniProt Q04206)", 3.28),
    ("Ac-APKPYQPRG-NH2 [PGA-1]", "Recombinant human p65 protein (r-p65) (Homo sapiens, UniProt Q04206)", 4.28),
]

For the substance shown here, Ac-EPAPYQPEG-NH2 [PGA-3] , give the reported Kd.
3.27
